Catalogue of compounds with associated IC50
TESTED TARGET: PDE10 (UniProt Q9Y233)
EXPERIMENT DESCRIPTION: PDE10 enzyme inhibition, IMAP TR-FRET assay (MPDE10A7 Enzyme Activity and Inhibition)
Assay type: biochemical
CONDITION NOTES: PDE10 enzyme inhibition; average IC50 data for each compound; read-out: Average IC50
MEASURED ENDPOINT: IC50 (nM)

COMPOUND | MEASURED ENDPOINT | UNIT ABBREVIATION | VAL
N#CC1(c2nccnc2Oc2ccc(Nc3nc4ccccc4s3)cc2)CCOCC1 [drawing 867] | IC50 | nM | 4.46
CN(c1ccc(Oc2nccnc2C2CCOCC2)cc1)c1nc2ccccc2s1 [drawing 870] | IC50 | nM | 11.8
O=C(c1ccc(Oc2nccnc2C2=CCC(F)(F)CC2)cc1)c1nc2ccccc2[nH]1 [drawing 862] | IC50 | nM | 14.2
C[C@H](F)C(=O)N1CCC(c2nccnc2Oc2ccc(C(=O)c3nc4ccccc4[nH]3)cc2)CC1 [drawing 977] | IC50 | nM | 0.137
CN1CCCC1CCOc1nccnc1Oc1ccc(C(=O)c2nc3ccccc3[nH]2)cc1 (centres unmarked) [drawing 858] | IC50 | nM | 235
COc1ccc(-c2nccnc2Oc2ccc(C(=O)c3nc4ccccc4[nH]3)cc2)c(OC)n1 [drawing 955] | IC50 | nM | 0.577
O=C(c1ccc(Oc2nccnc2N2CC[C@@H](O)C2)cc1)c1nc2ccccc2[nH]1 (stereo in doubt) | IC50 | nM | 7.6
O=C(c1ccc(Oc2nccnc2N2CCC(C(=O)O)CC2)cc1)c1nc2ccccc2[nH]1 | IC50 | nM | 1.18
Clc1nccnc1Oc1ccc(Nc2nc3ccccc3s2)cc1 | IC50 | nM | 603
CC(C)(C)OC(=O)N1CCC(CO)(c2nccnc2Oc2ccc(Nc3nc4ccccc4s3)cc2)CC1 [drawing 875] | IC50 | nM | 251
O=C(c1ccc(Oc2nccnc2[C@H]2CCCOC2)cc1)c1nc2ccccc2[nH]1 (stereo in doubt) | IC50 | nM | 2.59
COc1ncc(F)cc1-c1nccnc1Oc1ccc(C(=O)c2nc3ccccc3[nH]2)cc1 [drawing 942] | IC50 | nM | 2.95
O=C(c1ccc(Oc2nccnc2C2CCOCC2)cc1)c1nc2ncccc2[nH]1 [drawing 890] | IC50 | nM | 7.72
O=C(c1ccc(Oc2nccnc2N2CCC(N3CCOCC3)CC2)cc1)c1nc2ccccc2[nH]1 | IC50 | nM | 27
Fc1ccc2sc(Nc3ccc(Oc4cnccn4)cc3)nc2c1 [drawing 882] | IC50 | nM | 12500
CN(C)CCOc1nccnc1Oc1ccc(C(=O)c2nc3ccccc3[nH]2)cc1 [drawing 857] | IC50 | nM | 486
O[C@H]1CCC[C@H](c2nccnc2Oc2ccc(Nc3nc4ccccc4s3)cc2)C1 [drawing 894] | IC50 | nM | 1.57
CCOC(=O)[C@@H]1CCCN(c2nccnc2Oc2ccc(C(=O)c3nc4ccccc4[nH]3)cc2)C1 [drawing 830] | IC50 | nM | 10.8
c1cncc(-c2nccnc2Oc2ccc(Nc3nc4ccccc4s3)cc2)c1 [drawing 823] | IC50 | nM | 10.4
N#C[C@@H]1CCN(c2nccnc2Oc2ccc(C(=O)c3nc4ccccc4[nH]3)cc2)C1 [drawing 828] | IC50 | nM | 1.76
Fc1ccc2nc(Nc3ccc(Oc4nccnc4Cl)cc3)sc2c1 [drawing 833] | IC50 | nM | 538
Fc1cc(Oc2nccnc2Cl)ccc1Nc1nc2ccccc2s1 [drawing 836] | IC50 | nM | 614
O[C@H]1CCC[C@H](c2nccnc2Oc2ccc(Nc3nc4ccccc4s3)cc2)C1 [drawing 913] | IC50 | nM | 1.34
